# Test system: HCT116 MTAP-deleted cells
# ASSAY_COMMENT: Cell viability assay (CellTiter-Glo, 7 days), HCT116 MTAP-deleted
# EXPERIMENTAL_CONDITIONS: Homo sapiens, HCT-116, 168 h

{"INPUT_SMILES": "Cn1ncc2c(N)nc3cc(F)c(C(=O)N(Cc4ccc(C(F)(F)F)cn4)N4C[C@@H]5C[C@H]4CO5)cc3c21", "STUDY_SYSTEM": "HCT116 MTAP-deleted cells", "CC50": "< 100 nM"}
{"INPUT_SMILES": "CC(=O)N(C)N(Cc1ccc(C(F)(F)F)cc1C)C(=O)c1ccc2nc(N)c3cnn(C)c3c2c1", "STUDY_SYSTEM": "HCT116 MTAP-deleted cells", "CC50": "< 100 nM"}
{"INPUT_SMILES": "CCOC(=O)NN(Cc1ccc(C(F)(F)F)cn1)C(=O)c1ccc2nc(N)c3cnn(C)c3c2c1", "STUDY_SYSTEM": "HCT116 MTAP-deleted cells", "CC50": "< 100 nM"}
{"INPUT_SMILES": "Cn1ncc2c(N)nc3cc(F)c(C(=O)N(Cc4ccccn4)N4CCCC4=O)cc3c21", "STUDY_SYSTEM": "HCT116 MTAP-deleted cells", "CC50": "100 to 1000 nM"}

---

# Test system: HCT116 MTAP-deleted cells
# ASSAY_COMMENT: Cell viability assay (CellTiter-Glo, 7 days), HCT116 MTAP-deleted
# EXPERIMENTAL_CONDITIONS: Homo sapiens, HCT-116, 168 h
# CC50 per record follows

{"INPUT_SMILES": "CC(=O)N(c1ccccc1)N(Cc1ccc(C(F)(F)F)cn1)C(=O)c1ccc2nc(N)c3cnn(C)c3c2c1", "CC50": "< 100 nM"}
{"INPUT_SMILES": "CN(C(=O)C1CC1)N(Cc1ccc(C2CC2)cn1)C(=O)c1ccc2nc(N)c3cnn(C)c3c2c1", "CC50": "< 100 nM"}
{"INPUT_SMILES": "Cn1cc(-c2ccc(CN(C(=O)c3ccc4nc(N)c5cnn(C)c5c4c3)N3CCCCC3=O)nc2)cn1", "CC50": "< 100 nM"}
{"INPUT_SMILES": "CN(C(=O)C1CC1)N(Cc1ccc(OC(F)F)cc1F)C(=O)c1ccc2nc(N)c3cnn(C)c3c2c1", "CC50": "< 100 nM"}
{"INPUT_SMILES": "CC(=O)N(C)N(Cc1ccc(-c2ccn(C(F)(F)F)n2)nc1F)C(=O)c1ccc2nc(N)c3cnn(C)c3c2c1", "CC50": "< 100 nM"}
{"INPUT_SMILES": "CN(C(=O)c1cocn1)N(Cc1ccc(C(F)(F)F)cc1)C(=O)c1ccc2nc(N)c3cnn(C)c3c2c1", "CC50": "< 100 nM"}
{"INPUT_SMILES": "CN(C(=O)C1CC1)N(Cc1ccc(C(F)F)cn1)C(=O)c1ccc2nc(N)c3cnn(C)c3c2c1", "CC50": "< 100 nM"}
{"INPUT_SMILES": "CC(=O)N(C)N(Cc1ccc(C2CC2)nc1F)C(=O)c1ccc2nc(N)c3cnn(C)c3c2c1", "CC50": "< 100 nM"}
{"INPUT_SMILES": "CC(=O)N(C)N(Cc1ccc(-c2cnn(C(F)F)c2)nc1F)C(=O)c1ccc2nc(N)c3cnn(C)c3c2c1", "CC50": "< 100 nM"}
{"INPUT_SMILES": "CN(C(=O)[C@H]1C[C@@H]1F)N(Cc1ccc(C(F)(F)F)cn1)C(=O)c1ccc2nc(N)c3cnn(C)c3c2c1", "CC50": "< 100 nM"}
{"INPUT_SMILES": "Cn1ncc2c(N)nc3ccc(C(=O)N(Cc4ccc(C(F)(F)F)cn4)NC(=O)OC(C)(C)C)cc3c21", "CC50": "< 100 nM"}
{"INPUT_SMILES": "Cn1ncc2c(N)nc3cc(F)c(C(=O)N(Cc4ccc(C(F)(F)F)nc4)N4CCCC4=O)cc3c21", "CC50": "< 100 nM"}
{"INPUT_SMILES": "Cn1ncc2c(N)nc3ccc(C(=O)N(Cc4ccccn4)N4CCCC4=O)cc3c21", "CC50": "100 to 1000 nM"}
{"INPUT_SMILES": "CN(C(=O)C12COC(C1)C2)N(Cc1ccc(C(F)(F)F)cn1)C(=O)c1ccc2nc(N)c3cnn(C)c3c2c1", "CC50": "100 to 1000 nM"}
{"INPUT_SMILES": "CC(=O)N(C)N(Cc1nc2cc(C(F)(F)F)ccc2s1)C(=O)c1ccc2nc(N)c3cnn(C)c3c2c1", "CC50": "< 100 nM"}
{"INPUT_SMILES": "COCCN(C)N(Cc1ccc(C(F)(F)F)cc1F)C(=O)c1cc2c(cc1F)nc(N)c1cnn(C)c12", "CC50": "< 100 nM"}
{"INPUT_SMILES": "Cn1ncc2c(N)nc3cc(F)c(C(=O)N(Cc4ccc(C(F)(F)F)cn4)NC(=O)OC4CCC4)cc3c21", "CC50": "< 100 nM"}
{"INPUT_SMILES": "CC(=O)N(C)N(Cc1ccc(C(F)(F)F)cn1)C(=O)c1ccc2nc(N)c3ccccc3c2c1", "CC50": "100 to 1000 nM"}
{"INPUT_SMILES": "CC(=O)N(C)N(Cc1ccc(F)c(F)c1F)C(=O)c1ccc2nc(N)c3cnn(C)c3c2c1", "CC50": "< 100 nM"}
{"INPUT_SMILES": "[2H]C([2H])([2H])N(C(=O)C1CC1)N(Cc1ccc(C(F)(F)F)cn1)C(=O)c1ccc2nc(N)c3cnn(C)c3c2c1", "CC50": "< 100 nM"}
{"INPUT_SMILES": "Cn1ncc2c(N)nc3ccc(C(=O)N(Cc4ccc(C(F)(F)F)cn4)N4CCC(C)(C)CC4=O)cc3c21", "CC50": "< 100 nM"}
{"INPUT_SMILES": "Cn1ncc2c3cc(C(=O)N(Cc4ccc(C(F)(F)F)cn4)N4CCOC4=O)ccc3nc(N)c21", "CC50": "< 100 nM"}
{"INPUT_SMILES": "CC(=O)N(C)N(Cc1ccc(-c2cnn(C(F)(F)F)c2)cc1C#N)C(=O)c1ccc2nc(N)c3cnn(C)c3c2c1", "CC50": "< 100 nM"}
{"INPUT_SMILES": "Cc1nc(C(F)(F)F)ccc1CN(C(=O)c1ccc2nc(N)c3cnn(C)c3c2c1)N(C)C(=O)C1CC1", "CC50": "< 100 nM"}
{"INPUT_SMILES": "Cn1ncc2c(N)nc3ccc(C(=O)N(Cc4ccc(C(F)(F)F)cn4)N4CC(F)(F)CCC4=O)cc3c21", "CC50": "< 100 nM"}
{"INPUT_SMILES": "Cn1ncc2c(N)nc3ccc(C(=O)N(Cc4ccc(C(C)(C)O)nc4)N4CCCCC4=O)cc3c21", "CC50": "100 to 1000 nM"}
{"INPUT_SMILES": "Cn1ncc2c(N)nc3ccc(C(=O)N(Cc4ccc(C(F)(F)F)cn4)N4CCS(=O)(=O)CC4)cc3c21", "CC50": "> 1000 nM"}
{"INPUT_SMILES": "CC(=O)N(C)N(Cc1nc2cc(Cl)ccc2o1)C(=O)c1ccc2nc(N)c3cnn(C)c3c2c1", "CC50": "< 100 nM"}
{"INPUT_SMILES": "Cn1ncc2c(N)nc3ccc(C(=O)N(Cc4ccc(OC(F)F)cc4)N4CCCOC4=O)cc3c21", "CC50": "< 100 nM"}
